Target: T1, CRBN, Q96SW2;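 further: pooled lentiviral library of zinc finger degron-EGFP fusions in mCherry-positive Jurkat cells, FACS-sorted after compound exposure, with degron abundance counted by next-generation sequencing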
T1 chain: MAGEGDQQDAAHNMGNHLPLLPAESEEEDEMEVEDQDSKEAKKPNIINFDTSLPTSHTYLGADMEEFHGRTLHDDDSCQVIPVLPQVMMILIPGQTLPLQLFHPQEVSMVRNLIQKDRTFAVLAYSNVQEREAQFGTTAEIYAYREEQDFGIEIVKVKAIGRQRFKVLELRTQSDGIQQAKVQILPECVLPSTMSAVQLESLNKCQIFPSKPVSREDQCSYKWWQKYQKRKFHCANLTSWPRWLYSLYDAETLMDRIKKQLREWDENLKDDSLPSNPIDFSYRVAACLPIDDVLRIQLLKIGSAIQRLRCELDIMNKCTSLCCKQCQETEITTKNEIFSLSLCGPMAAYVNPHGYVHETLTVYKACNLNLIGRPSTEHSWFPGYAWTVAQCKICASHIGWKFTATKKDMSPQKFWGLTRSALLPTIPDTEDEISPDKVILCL
Experiment: log2 fold change of degron read counts, EGFP-low vs EGFP+ sorted cells (limma voom), compound-induced degradation; higher = more compound-induced degradation of the degron-EGFP fusion; degrons are variants of IKZF1/3 zinc finger 2; compound dose not given here
Settings: Jurkat; 18 h; compound: compound 33 (diphenyl IMiD analogue)
In all, about 8,300 sequences were measured (“log2 fold change of degron read counts, EGFP-low vs EGFP+ sorted cells (limma voom), compound-induced degradation”: median about -1.1, highest 2% from about 3.2 on). What follows is part of a selection rich in the highest values, with near analogues and random picks from the rest.
measurement-kind: log2 fold change of degron read counts
Write no unit; give the number alone.

{"macromolecule-sequence": "FSCDQCGAEFTQKGNLLRHIKL [46F_47S_49D_50Q_52G_53A_54E_55F_67L_, Q9UKT9]", "measurement-kind": "log2 fold change of degron read counts", "experimental-value": -1.87}
{"macromolecule-sequence": "FQCEQCGACFTQKGNLLRHIKL [46F_47Q_49E_50Q_52G_53A_54C_55F_67L_, Q9UKT9]", "measurement-kind": "log2 fold change of degron read counts", "experimental-value": 0.542}
{"macromolecule-sequence": "LGCPICGFQCTQKGNLLRHIKL [46L_47G_49P_50I_52G_53F_54Q_55C_67L_, Q9UKT9]", "measurement-kind": "log2 fold change of degron read counts", "experimental-value": 1.15}
{"macromolecule-sequence": "FDCPVCGAPFTQKGNLLRHIKL [46F_47D_49P_50V_52G_53A_54P_55F_67L_, Q9UKT9]", "measurement-kind": "log2 fold change of degron read counts", "experimental-value": 0.886}
{"macromolecule-sequence": "FQCPICGAVFTQKGNLLRHIKL [46F_47Q_49P_50I_52G_53A_54V_55F_67L_, Q9UKT9]", "measurement-kind": "log2 fold change of degron read counts", "experimental-value": 2.7}
{"macromolecule-sequence": "FICDVCGAPFTQKGNLLRHIKL [46F_47I_49D_50V_52G_53A_54P_55F_67L_, Q9UKT9]", "measurement-kind": "log2 fold change of degron read counts", "experimental-value": 1.53}
{"macromolecule-sequence": "FYCPQCGAWFTQKGNLLRHIKL [46F_47Y_49P_50Q_52G_53A_54W_55F_67L_, Q9UKT9]", "measurement-kind": "log2 fold change of degron read counts", "experimental-value": -0.405}
{"macromolecule-sequence": "FRCNICGAMFTQKGNLLRHIKL [46F_47R_49N_50I_52G_53A_54M_55F_67L_, Q9UKT9]", "measurement-kind": "log2 fold change of degron read counts", "experimental-value": -0.539}

Q: // query log2 fold change of degron read counts value for entry FECPICGAVFTQKGNLLRHIKL [46F_47E_49P_50I_52G_53A_54V_55F_67L_, Q9UKT9]
Ans: 2.77

Q: // query log2 fold change of degron read counts value for entry FSCPICGAVFTQKGNLLRHIKL [46F_47S_49P_50I_52G_53A_54V_55F_67L_, Q9UKT9]
Ans: 2.72

Q: // query log2 fold change of degron read counts value for entry FECNQCGANFTQKGNLLRHIKL [46F_47E_49N_50Q_52G_53A_54N_55F_67L_, Q9UKT9]
Ans: -1.14

Q: // query log2 fold change of degron read counts value for entry LVCPICGFQCTQKGNLLRHIKL [46L_47V_49P_50I_52G_53F_54Q_55C_67L_, Q9UKT9]
Ans: 2.04

Q: // query log2 fold change of degron read counts value for entry FECDVCGADFTQKGNLLRHIKL [46F_47E_49D_50V_52G_53A_54D_55F_67L_, Q9UKT9]
Ans: -1.99

Q: // query log2 fold change of degron read counts value for entry FACPICGAVFTQKGNLLRHIKL [46F_47A_49P_50I_52G_53A_54V_55F_67L_, Q9UKT9]
Ans: 1.75

Q: // query log2 fold change of degron read counts value for entry FGCPVCGAPFTQKGNLLRHIKL [46F_47G_49P_50V_52G_53A_54P_55F_67L_, Q9UKT9]
Ans: 1.27
